# System: A549
# testName: Antiproliferative activity against human A549 cells incubated for 72 hrs by CCK8 cells
# Assay type: functional, cell-based
# conditionSummary: A549, 72 h
IC50: recorded values

chemicalString	measureUnit	IC50
C=C1C(=O)[C@]23[C@H](OC(=O)CCc4cc(OC)c(OC)c(OC)c4)[C@H]1CC[C@H]2[C@@]12CO[C@]3(O)[C@@H](O)[C@@H]1C(C)(C)CC[C@@H]2O	µM	11
C=C1C(=O)[C@]23[C@H](OC(=O)Cc4cc(OC)c(OC)c(OC)c4)[C@H]1CC[C@H]2[C@@]12CO[C@]3(O)[C@@H](O)[C@@H]1C(C)(C)CC[C@@H]2O	µM	37.5
C=C1C(=O)[C@@]23C(=O)[C@@H](OC(C)=O)[C@@H]4C(C)(C)CC[C@H](OC(C)=O)[C@@]4(COC(C)=O)[C@@H]2CC[C@@H]1[C@H]3OC(C)=O	µM	10.5

###

Examples of compounds with documented pIC50 follow.
# Test system: RPMI-8226
# testName: Antiproliferative activity against human RPMI8226 cells incubated for 72 hrs by CCK8 cells
# Format: functional, cell-based
# conditionSummary: RPMI-8226, 72 h
pIC50: −log10 of the molar value.
measureName: pIC50

chemicalString	measureName	valueReported
C=C1C(=O)[C@@]23C(=O)[C@@H](OC(C)=O)[C@@H]4C(C)(C)CC[C@H](OC(C)=O)[C@@]4(COC(C)=O)[C@@H]2CC[C@@H]1[C@H]3OC(C)=O	pIC50	4.86
C=C1C(=O)[C@]23[C@H](OC(=O)c4ccc(OCc5ccccc5)cc4F)[C@H]1CC[C@H]2[C@@]12CO[C@]3(O)[C@@H](O)[C@@H]1C(C)(C)CC[C@@H]2O	pIC50	4.76
C=C1C(=O)[C@]23[C@H](OC(=O)/C=C/c4ccc(OC)c(OC)c4)[C@H]1CC[C@H]2[C@@]12CO[C@]3(O)[C@@H](O)[C@@H]1C(C)(C)CC[C@@H]2O	pIC50	5.24
C=C1C(=O)[C@]23[C@H](OC(=O)CCc4cc(OC)c(OC)c(OC)c4)[C@H]1CC[C@H]2[C@@]12CO[C@]3(O)[C@@H](O)[C@@H]1C(C)(C)CC[C@@H]2O	pIC50	4.91
C=C1C(=O)[C@]23[C@H](O)[C@H]1CC[C@H]2[C@@]12CO[C@]3(O)[C@@H](OC(C)=O)[C@@H]1C(C)(C)CC[C@@H]2OC(C)=O	pIC50	4.89

###

# System: A549
# testName: Antiproliferative activity against human A549 cells incubated for 72 hrs by CCK8 cells
# Format: functional, cell-based
# conditionSummary: A549, 72 h
pIC50: −log10 of the molar value.
measureName: pIC50

compound	qualifierSymbol	valueReported
C=C1C(=O)[C@]23[C@H](O)[C@H]1CC[C@H]2[C@@]12CO[C@@]3(O)[C@@H](O)[C@@H]1C(C)(C)CC[C@@H]2OC(C)=O	=	4.96
C=C1C(=O)[C@]23[C@H](OC(=O)CCc4ccc(OC)c(OC)c4)[C@H]1CC[C@H]2[C@@]12CO[C@]3(O)[C@@H](O)[C@@H]1C(C)(C)CC[C@@H]2O	=	4.64
C=C1C(=O)[C@]23[C@H](OC(=O)[C@@H]4OC(c5ccc(OC)cc5)N(C(=O)OC(C)(C)C)[C@H]4c4ccccc4)[C@H]1CC[C@H]2[C@@]12CO[C@]3(O)[C@@H](O)[C@@H]1C(C)(C)CC[C@@H]2O (some centres undefined)	=	4.65
C=C1C(=O)[C@]23[C@H](OC(=O)CCCCC4CCSS4)[C@H]1CC[C@H]2[C@@]12CO[C@]3(O)[C@@H](O)[C@@H]1C(C)(C)CC[C@@H]2O (some centres undefined)	<	4.00
